- TARGET OF ASSAY: USP28 (Homo sapiens)
- Construct: purchased R&D Systems
- Sequence (Q96RU2 whole entry): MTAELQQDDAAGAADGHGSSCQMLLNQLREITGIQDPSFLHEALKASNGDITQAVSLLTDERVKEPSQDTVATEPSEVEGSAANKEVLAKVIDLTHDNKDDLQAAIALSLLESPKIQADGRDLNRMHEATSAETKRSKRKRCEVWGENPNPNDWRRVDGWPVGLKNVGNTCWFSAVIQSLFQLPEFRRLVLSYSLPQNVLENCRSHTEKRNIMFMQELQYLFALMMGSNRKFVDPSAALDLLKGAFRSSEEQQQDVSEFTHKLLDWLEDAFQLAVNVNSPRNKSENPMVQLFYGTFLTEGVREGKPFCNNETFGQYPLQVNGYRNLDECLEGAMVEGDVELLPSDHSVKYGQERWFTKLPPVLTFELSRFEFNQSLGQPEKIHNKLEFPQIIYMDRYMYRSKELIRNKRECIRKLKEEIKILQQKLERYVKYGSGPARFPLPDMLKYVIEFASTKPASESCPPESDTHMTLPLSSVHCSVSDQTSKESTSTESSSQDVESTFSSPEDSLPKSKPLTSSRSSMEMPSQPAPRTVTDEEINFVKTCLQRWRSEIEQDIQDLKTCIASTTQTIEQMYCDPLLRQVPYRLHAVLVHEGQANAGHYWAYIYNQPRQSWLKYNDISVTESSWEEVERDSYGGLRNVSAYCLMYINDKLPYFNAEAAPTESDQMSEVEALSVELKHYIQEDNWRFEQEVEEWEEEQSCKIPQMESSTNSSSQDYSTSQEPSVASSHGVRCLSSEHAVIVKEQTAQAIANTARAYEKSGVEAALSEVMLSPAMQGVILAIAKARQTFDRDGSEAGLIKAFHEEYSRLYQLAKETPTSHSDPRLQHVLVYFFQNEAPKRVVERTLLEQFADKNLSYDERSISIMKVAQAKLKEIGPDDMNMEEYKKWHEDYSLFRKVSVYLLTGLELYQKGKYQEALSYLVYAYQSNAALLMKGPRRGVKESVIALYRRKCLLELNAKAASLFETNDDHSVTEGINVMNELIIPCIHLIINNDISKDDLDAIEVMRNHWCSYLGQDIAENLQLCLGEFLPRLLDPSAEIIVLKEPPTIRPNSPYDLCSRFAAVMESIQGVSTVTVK
- METHOD DESCRIPTION: USP28 activity measured using ubiquitin-rhodamine 110 method
- Format: biochemical
- RUN PARAMETERS: purified USP28 4 nM, ubiquitin-rhodamine 110 125 nM, 30 min preincubation; read-out: Inhibitory activity against USP28 (IC50)
EXPERIMENTAL ENDPOINT: IC50

For orientation, consider the following solved cases.
| MOLECULE | TARGET OF ASSAY | VAL |
| --- | --- | --- |
| CCc1ccc2c(NC)c(C(=O)NCCc3c[nH]c4ccccc34)sc2n1 [Compound I-50] | USP28 (Homo sapiens) | < 100 nM |
| CNc1c(C(=O)NCCc2c[nH]c3ccccc23)sc2nc(C)cc(C)c12 [Compound I-53] | USP28 (Homo sapiens) | 100 to 1000 nM |

[Q] # returns recorded IC50 (system: USP28 (Homo sapiens)) for Cc1ccc2c(NCCN(C)C)c(C(=O)NCCc3ccc(N4C[C@H]5CC[C@@H](C4)N5)cc3)sc2n1 [Compound I-25]
[A] 5000 to 10000 nM

[Q] Item CNc1c(C(=O)NCCc2ccc(C3CCNCC3)cc2)sc2nc(C)ccc12 [Compound I-3] with USP28 (Homo sapiens) - IC50?
[A] < 100 nM

[Q] Param readout = IC50; param system = USP28 (Homo sapiens); param query = CNc1c(C(=O)N[C@@H](C)Cc2ccc(Br)cc2)sc2nc(C)ccc12 [Compound I-61] ; response: value
[A] 1000 to 5000 nM

Ref: patent US12486284B2
